- test-system: GluA1o-γ8 (GRIA1o-CACNG8 fusion construct; TARP γ8 dependent AMPA receptor) (Homo sapiens (Human), UniProt P42261+Q8WXS5)
- Sequence (P42261 other isoform, or with tags, fused parts or gaps): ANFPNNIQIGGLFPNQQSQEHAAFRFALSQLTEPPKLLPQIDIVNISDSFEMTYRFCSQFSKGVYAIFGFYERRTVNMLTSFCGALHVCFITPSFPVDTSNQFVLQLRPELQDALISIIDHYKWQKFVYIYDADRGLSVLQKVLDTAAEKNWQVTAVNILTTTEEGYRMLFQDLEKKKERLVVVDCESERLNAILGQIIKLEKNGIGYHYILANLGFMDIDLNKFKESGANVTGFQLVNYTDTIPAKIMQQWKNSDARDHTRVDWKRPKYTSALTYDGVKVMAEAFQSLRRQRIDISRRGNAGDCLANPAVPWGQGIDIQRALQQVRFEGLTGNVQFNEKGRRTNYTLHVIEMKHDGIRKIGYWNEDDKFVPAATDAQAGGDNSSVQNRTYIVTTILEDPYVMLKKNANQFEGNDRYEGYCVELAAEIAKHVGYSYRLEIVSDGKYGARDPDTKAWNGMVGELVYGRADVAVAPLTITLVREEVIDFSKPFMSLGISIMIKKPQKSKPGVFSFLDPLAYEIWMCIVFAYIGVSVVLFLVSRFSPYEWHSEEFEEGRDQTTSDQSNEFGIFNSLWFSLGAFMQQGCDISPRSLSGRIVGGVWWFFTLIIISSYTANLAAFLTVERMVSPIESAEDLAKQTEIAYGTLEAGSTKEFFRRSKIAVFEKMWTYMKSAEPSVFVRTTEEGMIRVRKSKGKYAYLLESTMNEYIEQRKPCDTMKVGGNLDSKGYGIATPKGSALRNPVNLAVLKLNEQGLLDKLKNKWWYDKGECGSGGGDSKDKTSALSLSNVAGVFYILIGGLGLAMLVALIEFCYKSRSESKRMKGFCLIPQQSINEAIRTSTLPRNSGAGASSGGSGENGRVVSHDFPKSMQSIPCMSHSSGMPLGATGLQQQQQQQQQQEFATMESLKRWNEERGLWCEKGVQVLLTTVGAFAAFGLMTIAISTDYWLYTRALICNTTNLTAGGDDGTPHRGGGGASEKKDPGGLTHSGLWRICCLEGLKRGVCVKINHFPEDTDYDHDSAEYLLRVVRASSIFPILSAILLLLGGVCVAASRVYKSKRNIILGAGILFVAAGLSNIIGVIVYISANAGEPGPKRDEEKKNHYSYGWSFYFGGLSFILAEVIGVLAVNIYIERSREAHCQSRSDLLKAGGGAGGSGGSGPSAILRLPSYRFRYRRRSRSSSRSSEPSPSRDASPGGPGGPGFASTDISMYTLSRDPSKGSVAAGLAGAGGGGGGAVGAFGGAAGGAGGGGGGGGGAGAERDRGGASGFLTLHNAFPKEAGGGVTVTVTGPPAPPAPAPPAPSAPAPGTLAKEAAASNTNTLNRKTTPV
- experiment-description: Calcium flux assay (FLIPR), inhibition of glutamate response of GluA1o-γ8 channel
- Assay type: cell-based
- cond: HEK293 cells stably expressing GRIA1o-CACNG8 fusion; 15 μM glutamate; pIC50 = negative log of IC50 in molar; read-out: GluR1-γ8 (pIC50) (converted)
property-measured: IC50 (nM)

Below, each entry is followed by its recorded IC50 result.
# molecule, test-value
rows = [
    ("CC(C)(C)c1nc2c(N3CCC(=O)CC3)nccn2c1-c1ccc2c(c1)CC(=O)N2 [Example 220]", 63.1),
    ("O=C1Cc2cc(-c3c(C(=O)c4ccccc4)nc4c(N5CCOCC5)nccn34)ccc2N1 [Example 153]", 0.316),
]

[1] O=C(NC1CC1)c1nc2c(N3CCOCC3)nccn2c1-c1ccc2[nH]c(=O)[nH]c2c1 [Example 146]
[2] CC(C)(C)c1nn2c(N3CCOCC3)nccc2c1-c1ccc2c(c1)CC(=O)N2 [Example 182]
[3] CC(=O)N1CCN(c2nccn3c(-c4ccc5[nH]ncc5c4)c(-c4ccc(C#N)cc4)nc23)CC1 [Example 103]
Thanks in advance: please rank these 3 entries by IC50, highest to lowest. Would you mind listing the labels in the order asked for?
1, 2, 3

---

- test-system: GluA1o-γ8 (GRIA1o-CACNG8 fusion construct; TARP γ8 dependent AMPA receptor) (Homo sapiens (Human), UniProt P42261+Q8WXS5)
- experiment-description: Calcium flux assay (FLIPR), inhibition of glutamate response of GluA1o-γ8 channel
- Type: cell-based
- cond: HEK293 cells stably expressing GRIA1o-CACNG8 fusion; 15 μM glutamate; pIC50 = negative log of IC50 in molar; read-out: GluR1-γ8 (pIC50) (converted)
property-measured: IC50 (nM)

Below, each entry is followed by its recorded IC50 result.
# compound-string, readout-unit, IC50
rows = [
    ("CC(=O)NC1CCN(c2nccn3c(-c4ccc(O)cc4)c(-c4ccc(Cl)cc4)nc23)CC1", "nM", 31.6),
    ("O=C1Cc2cc(-c3c(-c4ccccc4)nc4c(N5CC6CC(C5)O6)nccn34)ccc2N1", "nM", 0.501),
]

[I] O=C1Cc2cc(-c3c(C4CCCC4)nn4c(N5CCOCC5)nccc34)ccc2N1
[II] O=C1Cc2cc(-c3c(-c4ccc(F)cc4)nn4cnccc34)ccc2N1
[III] O=C(c1ccc(F)cc1)c1nc2c(N3CCOCC3)nccn2c1-c1ccc(O)cc1
[IV] O=c1[nH]c2ccc(-c3c(C4CC4)nn4cnc(C(F)(F)F)cc34)cc2s1
[V] CS(=O)(=O)C1CN(c2nccn3c(-c4ccc5c(c4)CC(=O)N5)c(-c4ccc(F)cc4)nc23)C1
Thanks in advance: please rank these 5 entries by IC50, highest to lowest. Would you mind listing the labels in the order asked for?
II, IV, I, V, III
(II: 631 nM, IV: 398 nM, I: 63.1 nM, V: 10 nM, III: 3.98 nM)

---

- test-system: GluA1o-γ8 (GRIA1o-CACNG8 fusion construct; TARP γ8 dependent AMPA receptor) (Homo sapiens (Human), UniProt P42261+Q8WXS5)
- experiment-description: Calcium flux assay (FLIPR), inhibition of glutamate response of GluA1o-γ8 channel
- Type: cell-based
- cond: HEK293 cells stably expressing GRIA1o-CACNG8 fusion; 15 μM glutamate; pIC50 = negative log of IC50 in molar; read-out: GluR1-γ8 (pIC50) (converted)
property-measured: IC50 (nM)

# molecule, readout-unit, IC50
data = [
    ("O=S1(=O)Cc2cc(-c3c(-c4ccc(F)cc4)nc4c(N5CCC(O)CC5)nccn34)ccc2N1", "nM", 3.16),
    ("CC(C)(C)c1nn2cnc(C(F)(F)F)cc2c1-c1ccc2[nH]c(=O)sc2c1", "nM", 316),
]

[P] COC1CCN(c2nccc3c(-c4ccc5[nH]ncc5c4)c(C(C)C)nn23)CC1
[Q] O=c1[nH]c2ccc(-c3c(-c4ccc(F)cc4)nc4c(N5CCOCC5)nccn34)cc2[nH]1
[R] O=C1Cc2cc(-c3c(-c4ccc(F)cc4)nc4c(N5CCO[C@@H](C(F)(F)F)C5)nccn34)ccc2N1 (single isomer, unassigned)
Ascending by IC50, please. Would you mind listing the labels in the order asked for?
Q, R, P
(Q: 0.398 nM, R: 12.6 nM, P: 126 nM)

[1] O=C1Nc2ccc(-c3c(-c4ccc(F)cc4)nc4c(N5CCOCC5)nccn34)cc2C1(F)F
[2] CC(C)(C)c1nn2c(N3CC(F)(F)C3)nccc2c1-c1ccc2c(c1)CC(=O)N2
[3] O=S1(=O)Cc2cc(-c3c(-c4ccc(F)cc4)nc4c(N5CCOCC5)nccn34)ccc2N1
[4] O=C1Cc2cc(-c3c(-c4ccc(F)cc4)nn4c(N5CC(CO)C5)nccc34)ccc2N1
Thanks in advance: please rank these 4 entries by IC50, highest to lowest. Would you mind listing the labels in the order asked for?
1, 2, 3, 4

[1] O=C(Nc1ccncc1)c1nc2c(N3CCOCC3)nccn2c1-c1ccc2[nH]c(=O)[nH]c2c1
[2] CC(=O)N1CCN(c2nccn3c(-c4ccc5[nH]c(=O)[nH]c5c4)c(-c4ccc(C#N)cc4)nc23)CC1
[3] O=C1Cc2cc(-c3c(C(=O)c4ccccc4)nc4c(N5CCC(O)CC5)nccn34)ccc2N1
[4] Oc1ccc(-c2c(-c3cccc(F)c3)nc3c(N4CCOCC4)nccn23)cc1
Ascending by IC50, please. Would you mind listing the labels in the order asked for?
3, 2, 4, 1

[1] O=C1Cc2cc(-c3c(-c4ccc(F)cc4)nc4c(N5CCOC(C(F)(F)F)C5)nccn34)ccc2N1 (centres unmarked)
[2] CC(=O)N1CCN(c2ncc(C)n3c(-c4ccc5c(c4)CC(=O)N5)c(Cc4ccccc4)nc23)CC1
Would you let me know which has the greater IC50 value, 1 or 2 ? The response must carry the label of the picked entry.
1
(1: 7.94 nM, 2: 2 nM)

[P] CN1CCN(c2nccn3c(-c4ccc(O)cc4)c(-c4ccc(F)cc4)nc23)CC1
[Q] O=C1Cc2cc(-c3c(C4CCCC4)nn4c(N5CC(F)C5)nccc34)ccc2N1
Would you let me know which has the greater IC50 value, P or Q ? The response must carry the label of the picked entry.
P
(P: 501 nM, Q: 158 nM)

[P] CC(C)c1nn2c(N3CCOCC3)nccc2c1-c1ccc2[nH]ncc2c1
[Q] O=C1Cc2cc(-c3c(-c4ccc(F)cc4)nc4c(N5CCC(O)C5)nccn34)ccc2N1 (centres unmarked)
[R] O=C1Cc2cc(-c3c(-c4ccc(F)cc4)nc4c(N5CCCC5)nccn34)ccc2N1
Ascending by IC50, please. Would you mind listing the labels in the order asked for?
Q, R, P
